- System: isolated Langendorff-perfused rat hearts
- Procedure summary: Ex vivo Langendorff-perfused rat heart, cardiac performance
- Conditions used: 1 μM, increase vs. control
Quick list: ∆% +dP/dtmax per entry.

{"Molecule": "Cc1nc(CO)c(C)nc1CO [1a, Liguzinediol]", "Assay target": "isolated Langendorff-perfused rat hearts", "∆% +dP/dtmax": "9.4 ± 8.1%"}
{"Molecule": "Cc1nc(COC(=O)C(C)C)c(C)nc1COC(=O)C(C)C [compound 4]", "Assay target": "isolated Langendorff-perfused rat hearts", "∆% +dP/dtmax": "2.2 ± 3.4%"}
{"Molecule": "Cc1nc(COC(=O)c2ccccc2)c(C)nc1COC(=O)c1ccccc1 [compound 5]", "Assay target": "isolated Langendorff-perfused rat hearts", "∆% +dP/dtmax": "1.0 ± 1.1%"}
{"Molecule": "CC(=O)OCc1nc(C)c(COC(C)=O)nc1C [compound 3]", "Assay target": "isolated Langendorff-perfused rat hearts", "∆% +dP/dtmax": "1.9 ± 0.5%"}

====

- Test system: isolated Langendorff-perfused rat hearts
- Procedure summary: Ex vivo Langendorff-perfused rat heart, cardiac performance
- Conditions used: 10 μM, increase vs. control

{"Molecule": "CC(=O)OCc1nc(C)c(COC(C)=O)nc1C [compound 3]", "∆% −dP/dtmax": "9.0 ± 5.1%"}
{"Molecule": "Cc1nc(COC(=O)C(C)C)c(C)nc1COC(=O)C(C)C [compound 4]", "∆% −dP/dtmax": "9.9 ± 9.5%"}
{"Molecule": "Cc1nc(COC(=O)c2ccccc2)c(C)nc1COC(=O)c1ccccc1 [compound 5]", "∆% −dP/dtmax": "15.3 ± 2.8%"}
{"Molecule": "Cc1nc(CO)c(C)nc1CO [1a, Liguzinediol]", "∆% −dP/dtmax": "30.3 ± 0.3%"}

====

- Tested on: isolated Langendorff-perfused rat hearts
- Procedure summary: Ex vivo Langendorff-perfused rat heart, cardiac performance
- Conditions used: 1 μM
Listed compounds paired with reported HR

{"Structure as smiles": "CC(=O)OCc1nc(C)c(COC(C)=O)nc1C", "Assay target": "isolated Langendorff-perfused rat hearts", "Units symbol": "beat·min^−1", "HR": 203}
{"Structure as smiles": "Cc1nc(COC(=O)C(C)C)c(C)nc1COC(=O)C(C)C", "Assay target": "isolated Langendorff-perfused rat hearts", "Units symbol": "beat·min^−1", "HR": 213}
{"Structure as smiles": "Cc1nc(COC(=O)c2ccccc2)c(C)nc1COC(=O)c1ccccc1", "Assay target": "isolated Langendorff-perfused rat hearts", "Units symbol": "beat·min^−1", "HR": 189}
{"Structure as smiles": "Cc1nc(CO)c(C)nc1CO", "Assay target": "isolated Langendorff-perfused rat hearts", "Units symbol": "beat·min^−1", "HR": 186}

====

Let's look at some molecules and their measured −dP/dtmax.
- System: isolated Langendorff-perfused rat hearts
- Procedure summary: Ex vivo Langendorff-perfused rat heart, cardiac performance
- Conditions used: 1 μM

{"Structure as smiles": "Cc1nc(COC(=O)C(C)C)c(C)nc1COC(=O)C(C)C", "Assay target": "isolated Langendorff-perfused rat hearts", "−dP/dtmax": "−1,101 ± 102 mmHg/s"}
{"Structure as smiles": "CC(=O)OCc1nc(C)c(COC(C)=O)nc1C", "Assay target": "isolated Langendorff-perfused rat hearts", "−dP/dtmax": "−1,139 ± 76 mmHg/s"}
{"Structure as smiles": "Cc1nc(CO)c(C)nc1CO", "Assay target": "isolated Langendorff-perfused rat hearts", "−dP/dtmax": "−1,175 ± 125 mmHg/s"}
{"Structure as smiles": "Cc1nc(COC(=O)c2ccccc2)c(C)nc1COC(=O)c1ccccc1", "Assay target": "isolated Langendorff-perfused rat hearts", "−dP/dtmax": "−1,095 ± 45 mmHg/s"}

====

- Tested on: isolated Langendorff-perfused rat hearts
- Procedure summary: Ex vivo Langendorff-perfused rat heart, cardiac performance
- Conditions used: 100 μM

{"Structure as smiles": "Cc1nc(COC(=O)C(C)C)c(C)nc1COC(=O)C(C)C", "HR": "191 ± 29 beat·min^−1"}
{"Structure as smiles": "Cc1nc(CO)c(C)nc1CO", "HR": "193 ± 15 beat·min^−1"}
{"Structure as smiles": "CC(=O)OCc1nc(C)c(COC(C)=O)nc1C", "HR": "205 ± 26 beat·min^−1"}
{"Structure as smiles": "Cc1nc(COC(=O)c2ccccc2)c(C)nc1COC(=O)c1ccccc1", "HR": "213 ± 41 beat·min^−1"}

====

- Tested on: isolated Langendorff-perfused rat hearts
- Procedure summary: Ex vivo Langendorff-perfused rat heart, cardiac performance
- Conditions used: 10 μM, increase vs. control
- Experimental: The cardiac contractility and safety of prodrugs 3–5 were evaluated on the myocardium in normal isolated rat hearts with LZDO as a positive control. Prodrugs 3–5 exerted positive inotropic effects in a dose-dependent manner. […] All commercial reagents and solvents were used without further purification unless otherwise specified. Melting points were determined using a model Buchi B-450 apparatus. ESI-MS were recorded on a TOF mass spectrometer (Applies-Biosystem Mariner). […]
Experimental readout: ∆% LVDP (%)

{"Structure as smiles": "CC(=O)OCc1nc(C)c(COC(C)=O)nc1C", "Assay target": "isolated Langendorff-perfused rat hearts", "Experimental readout": "∆% LVDP", "Readout value": 26.3}
{"Structure as smiles": "Cc1nc(COC(=O)c2ccccc2)c(C)nc1COC(=O)c1ccccc1", "Assay target": "isolated Langendorff-perfused rat hearts", "Experimental readout": "∆% LVDP", "Readout value": 13.9}
{"Structure as smiles": "Cc1nc(COC(=O)C(C)C)c(C)nc1COC(=O)C(C)C", "Assay target": "isolated Langendorff-perfused rat hearts", "Experimental readout": "∆% LVDP", "Readout value": 14.2}
{"Structure as smiles": "Cc1nc(CO)c(C)nc1CO", "Assay target": "isolated Langendorff-perfused rat hearts", "Experimental readout": "∆% LVDP", "Readout value": 45.6}

====

- Test system: isolated Langendorff-perfused rat hearts
- Procedure summary: Ex vivo Langendorff-perfused rat heart, cardiac performance
- Conditions used: 1 μM, increase vs. control

{"Structure as smiles": "Cc1nc(COC(=O)C(C)C)c(C)nc1COC(=O)C(C)C", "∆% LVDP / %": 17.4}
{"Structure as smiles": "Cc1nc(CO)c(C)nc1CO", "∆% LVDP / %": 19.4}
{"Structure as smiles": "Cc1nc(COC(=O)c2ccccc2)c(C)nc1COC(=O)c1ccccc1", "∆% LVDP / %": 5.3}
{"Structure as smiles": "CC(=O)OCc1nc(C)c(COC(C)=O)nc1C", "∆% LVDP / %": 15.0}

====

- System: isolated Langendorff-perfused rat hearts
- Procedure summary: Ex vivo Langendorff-perfused rat heart, cardiac performance
- Conditions used: 100 μM, isolated rat heart, mean ± SD, n = 6
We begin with a simple list: items and their reported LVDP.
Experimental readout: LVDP

{"Structure as smiles": "Cc1nc(CO)c(C)nc1CO", "Experimental readout": "LVDP", "Readout value": "88 ± 3 ^bdf mmHg"}
{"Structure as smiles": "Cc1nc(COC(=O)C(C)C)c(C)nc1COC(=O)C(C)C", "Experimental readout": "LVDP", "Readout value": "73 ± 2.3 ^bdf mmHg"}
{"Structure as smiles": "Cc1nc(COC(=O)c2ccccc2)c(C)nc1COC(=O)c1ccccc1", "Experimental readout": "LVDP", "Readout value": "64 ± 2.4 ^bde mmHg"}
{"Structure as smiles": "CC(=O)OCc1nc(C)c(COC(C)=O)nc1C", "Experimental readout": "LVDP", "Readout value": "79 ± 1.6 ^bdf mmHg"}

====

- System: isolated Langendorff-perfused rat hearts
- Procedure summary: Ex vivo Langendorff-perfused rat heart, cardiac performance
- Conditions used: 100 μM

{"Molecule": "Cc1nc(CO)c(C)nc1CO [1a, Liguzinediol]", "Assay target": "isolated Langendorff-perfused rat hearts", "+dP/dtmax": "2,702 ± 287 ^bdf mmHg/s"}
{"Molecule": "CC(=O)OCc1nc(C)c(COC(C)=O)nc1C [compound 3]", "Assay target": "isolated Langendorff-perfused rat hearts", "+dP/dtmax": "2,123 ± 82 ^bdf mmHg/s"}
{"Molecule": "Cc1nc(COC(=O)C(C)C)c(C)nc1COC(=O)C(C)C [compound 4]", "Assay target": "isolated Langendorff-perfused rat hearts", "+dP/dtmax": "1,952 ± 49 ^bdf mmHg/s"}
{"Molecule": "Cc1nc(COC(=O)c2ccccc2)c(C)nc1COC(=O)c1ccccc1 [compound 5]", "Assay target": "isolated Langendorff-perfused rat hearts", "+dP/dtmax": "1,962 ± 70 ^bdf mmHg/s"}

====

- Tested on: isolated Langendorff-perfused rat hearts
- Procedure summary: Ex vivo Langendorff-perfused rat heart, cardiac performance
- Conditions used: 1 μM
- Description: The cardiac contractility and safety of prodrugs 3–5 were evaluated on the myocardium in normal isolated rat hearts with LZDO as a positive control. Prodrugs 3–5 exerted positive inotropic effects in a dose-dependent manner. […] All commercial reagents and solvents were used without further purification unless otherwise specified. Melting points were determined using a model Buchi B-450 apparatus. ESI-MS were recorded on a TOF mass spectrometer (Applies-Biosystem Mariner). […]
Measured +dP/dtmax of individual entries
Experimental readout: +dP/dtmax

{"Structure as smiles": "CC(=O)OCc1nc(C)c(COC(C)=O)nc1C", "Experimental readout": "+dP/dtmax", "Readout value": "1,641 ± 29 mmHg/s"}
{"Structure as smiles": "Cc1nc(COC(=O)C(C)C)c(C)nc1COC(=O)C(C)C", "Experimental readout": "+dP/dtmax", "Readout value": "1,669 ± 103 mmHg/s"}
{"Structure as smiles": "Cc1nc(COC(=O)c2ccccc2)c(C)nc1COC(=O)c1ccccc1", "Experimental readout": "+dP/dtmax", "Readout value": "1,688 ± 95 mmHg/s"}
{"Structure as smiles": "Cc1nc(CO)c(C)nc1CO", "Experimental readout": "+dP/dtmax", "Readout value": "1,836 ± 121 mmHg/s"}

Origin of values: paper PMC6270099
